Kindly supply the reported log10 IC50 values for the records listed here.
Target Of Assay: GABA-A receptor; anion channel
Assay Notes: The concentration required to inhibit 50% of binding of [35S]TBPS to Gamma-aminobutyric acid A receptor to rat whole brain membranes.
Would you kindly interpret these values as log10 of IC50 expressed in nM?

Would you please look over these solved cases?
{"columns": ["Line Notation", "log10 IC50"],
 "data": [
  ["CC1(C)CN([C@H]2C[C@@]3(C)[C@@H](CC[C@H]4[C@@H]5CC[C@H](C(=O)CSC#N)[C@@]5(C)CC(=O)[C@@H]43)C[C@@H]2O)CCO1", 2.50],
  ["CC1(C)CN([C@H]2C[C@@]3(C)[C@@H](CC[C@H]4[C@@H]5CC[C@H](C(=O)CCl)[C@@]5(C)CC(=O)[C@@H]43)C[C@@H]2O)CCO1", 2.31],
  ["CC(=O)[C@H]1CC[C@H]2[C@@H]3CC[C@H]4C[C@H](O)[C@@H](N5CC(C)(C)OC(C)(C)C5)C[C@]4(C)[C@H]3C(=O)C[C@]12C", 2.10]
]}

State the recorded log10 IC50 for every item in the following list.
1. CC1(C)CN([C@H]2C[C@@]3(C)[C@@H](CC[C@H]4[C@@H]5CC[C@H](C(=O)CN=[N+]=[N-])[C@@]5(C)CC(=O)[C@@H]43)C[C@@H]2O)CCO1
2. C[C@]12C[C@H](N3CCOCC3)[C@@H](O)C[C@@H]1CC[C@H]1[C@@H]3CC[C@H](C(=O)CCl)[C@@]3(C)CC(=O)[C@@H]12

# output
1: 3.34; 2: 3.96

* * *

System: Mus musculus
Assay Notes: Hypnotic dose was determined by observing loss of righting reflex for a minimum period of 30 sec in 50% of treated mice after i.v. administration.
Format: functional
Endpoint Name: HD50 (µM/kg)
Give bare numbers, in µM/kg.

Would you please look over these solved cases?
{"columns": ["Compound", "Value Unit", "Experimental Value"],
 "data": [
  ["CC1(C)CN([C@H]2C[C@@]3(C)[C@@H](CC[C@@H]4[C@@H]3CC[C@]3(C)[C@@H](C(=O)CO)CC[C@@H]43)C[C@@H]2O)CCO1", "µM/kg", 18.4],
  ["CC(=O)SCC(=O)[C@H]1CC[C@H]2[C@@H]3CC[C@H]4C[C@H](O)[C@@H](N5CCOCC5)C[C@]4(C)[C@H]3CC[C@]12C", "µM/kg", 33.8],
  ["CC(=O)[C@H]1CC[C@H]2[C@@H]3CC[C@H]4C[C@H](O)[C@@H](N5CCO[C@H](Cc6ccccc6)C5)C[C@]4(C)[C@H]3C(=O)C[C@]12C", "µM/kg", 12.6],
  ["CC(=O)[C@H]1CC[C@H]2[C@@H]3CC[C@H]4C[C@H](O)CC[C@]4(C)[C@H]3CC[C@]12C [BREXANOLONE]", "µM/kg", 10],
  ["CC(=O)OCC(=O)[C@H]1CC[C@H]2[C@@H]3CC[C@H]4C[C@H](O)[C@@H](N5CCOC(C)(C)C5)C[C@]4(C)[C@H]3CC[C@]12C", "µM/kg", 16.9],
  ["CC(=O)OCC(=O)[C@H]1CC[C@H]2[C@@H]3CC[C@H]4C[C@H](O)[C@@H](N5CCOCC5)C[C@]4(C)[C@H]3CC[C@]12C", "µM/kg", 31]
]}

State the recorded HD50 for every item in the following list.
1. CC(=O)[C@H]1CC[C@H]2[C@@H]3CC[C@H]4C[C@H](O)[C@@H](N5CCO[C@@H](C)C5)C[C@]4(C)[C@H]3CC[C@]12C
2. CCCC(C)C1(CC)C(=O)NC(=S)NC1=O (configuration not stated) [THIOPENTAL]

# output
1: 29; 2: 83

* * *

Target Of Assay: GABA-A receptor; anion channel
Assay Notes: The concentration required to inhibit 50% of binding of [35S]TBPS to Gamma-aminobutyric acid A receptor to rat whole brain membranes.
Endpoint Name: IC50 (nM)
Give bare numbers, in nM.

State the recorded IC50 for every item in the following list.
1. CCCCC1(CCCC)CN([C@H]2C[C@@]3(C)[C@@H](CC[C@H]4[C@@H]5CC[C@H](C(C)=O)[C@@]5(C)CC(=O)[C@@H]43)C[C@@H]2O)CCO1
2. CC(=O)[C@H]1CC[C@H]2[C@@H]3CC[C@H]4C[C@H](O)[C@@H](N5CCSC(C)(C)C5)C[C@]4(C)[C@H]3CC[C@]12C
3. CC(=O)OCC(=O)[C@H]1CC[C@H]2[C@@H]3CC[C@H]4C[C@H](O)[C@@H](N5CCOC(C)(C)C5)C[C@]4(C)[C@H]3CC[C@]12C
4. CC(=O)[C@H]1CC[C@H]2[C@@H]3CC[C@H]4C[C@H](O)[C@@H](N5CCO[C@H](C)C5)C[C@]4(C)[C@H]3C(=O)C[C@]12C
5. CC1(C)CN([C@H]2C[C@@]3(C)[C@@H](CC[C@@H]4[C@@H]3CC[C@]3(C)[C@@H](C(=O)CCl)CC[C@@H]43)C[C@@H]2O)CCO1

# output
1. 53
2. 115
3. 387
4. 1140
5. 39

State the recorded IC50 for every item in the following list.
1. CC(=O)[C@H]1CC[C@H]2[C@@H]3CC[C@H]4C[C@H](O)[C@@H](N5CC(C)(C)SC(C)(C)C5)C[C@]4(C)[C@H]3C(=O)C[C@]12C
2. CC(=O)[C@H]1CC[C@H]2[C@@H]3CC[C@H]4C[C@H](O)[C@@H](N5CCO[C@@H](C)C5)C[C@]4(C)[C@H]3CC[C@]12C
3. CC[C@@H]1CN([C@H]2C[C@@]3(C)[C@@H](CC[C@@H]4[C@@H]3CC[C@]3(C)[C@@H](C(C)=O)CC[C@@H]43)C[C@@H]2O)CCO1
4. CC(=O)[C@H]1CC[C@H]2[C@@H]3CC[C@H]4C[C@H](O)[C@@H](N5CCOCC5)C[C@]4(C)[C@H]3C(=O)C[C@]12C
5. CCCC(C)C1(CC)C(=O)NC(=S)NC1=O (configuration not stated)
6. CC1(C)CN([C@H]2C[C@@]3(C)[C@@H](CC[C@H]4[C@@H]5CC[C@H](C(=O)CO)[C@@]5(C)CC(=O)[C@@H]43)C[C@@H]2O)CCO1
7. CC(=O)[C@H]1CC[C@H]2[C@@H]3CC[C@H]4C[C@H](O)CC[C@]4(C)[C@H]3CC[C@]12C

# output
1. 231
2. 424
3. 910
4. 2560
5. 29500
6. 5590
7. 91

* * *

Tested on: Mus musculus
Assay Notes: Hypnotic dose was determined by observing loss of righting reflex for a minimum period of 30 sec in 50% of treated mice after i.v. administration.
Assay type: functional
Endpoint Name: HD50 (µM/kg)
Answers are plain numbers, in µM/kg.

Would you please look over these solved cases?
{"columns": ["Line Notation", "Target Of Assay", "Endpoint Name", "Experimental Value"],
 "data": [
  ["CC(=O)[C@H]1CC[C@H]2[C@@H]3CC[C@H]4C[C@H](O)[C@@H](N5CCO[C@H](CC(C)C)C5)C[C@]4(C)[C@H]3C(=O)C[C@]12C", "Mus musculus", "HD50", 6.5],
  ["C[C@]12C[C@H](N3CCOCC3)[C@@H](O)C[C@@H]1CC[C@@H]1[C@@H]2CC[C@]2(C)[C@@H](C(=O)CO)CC[C@@H]12", "Mus musculus", "HD50", 31.6],
  ["C[C@]12CC[C@@H](O)C[C@@H]1CC[C@@H]1[C@@H]2CC[C@]2(C)[C@@H](C(=O)CO)CC[C@@H]12", "Mus musculus", "HD50", 18.5]
]}

State the recorded HD50 for every item in the following list.
1. CC[C@@H]1CN([C@H]2C[C@@]3(C)[C@@H](CC[C@H]4[C@@H]5CC[C@H](C(C)=O)[C@@]5(C)CC(=O)[C@@H]43)C[C@@H]2O)CCO1
2. CC(=O)[C@H]1CC[C@H]2[C@@H]3CC[C@H]4C[C@H](O)[C@@H](N5CCOC(C)(C)C5)C[C@]4(C)[C@H]3C(=O)C[C@]12C
3. CC[C@H]1CN([C@H]2C[C@@]3(C)[C@@H](CC[C@@H]4[C@@H]3CC[C@]3(C)[C@@H](C(C)=O)CC[C@@H]43)C[C@@H]2O)CCO1

# output
8.7
9.8
22.7

* * *

System: Mus musculus
Assay Notes: Hypnotic dose was determined by observing loss of righting reflex for a minimum period of 30 sec in 50% of treated mice after i.v. administration.
Type: functional
Endpoint Name: HD50 (µM/kg)
Numbers only, in µM/kg.

{"columns": ["Line Notation", "Target Of Assay", "HD50 (µM/kg)"],
 "data": [
  ["CCC[C@@H]1CN([C@H]2C[C@@]3(C)[C@@H](CC[C@H]4[C@@H]5CC[C@H](C(C)=O)[C@@]5(C)CC(=O)[C@@H]43)C[C@@H]2O)CCO1", "Mus musculus", 6.4],
  ["CC(=O)[C@H]1CC[C@H]2[C@@H]3CC[C@H]4C[C@H](O)[C@@H](N5CCO[C@H](C)C5)C[C@]4(C)[C@H]3CC[C@]12C", "Mus musculus", 15],
  ["CC(=O)[C@H]1CC[C@H]2[C@@H]3CC[C@@H]4C[C@H](O)CC[C@]4(C)[C@H]3CC[C@]12C", "Mus musculus", 9.5]
]}

State the recorded HD50 for every item in the following list.
1. CC(=O)[C@H]1CC[C@H]2[C@@H]3CC[C@H]4C[C@H](O)[C@@H](N5CCO[C@H](C(C)C)C5)C[C@]4(C)[C@H]3C(=O)C[C@]12C
2. CCO[C@H]1C[C@@]2(C)[C@@H](CC[C@@H]3[C@@H]2[C@H](N(C)C)C[C@]2(C)[C@@H](C(C)=O)CC[C@@H]32)C[C@@H]1O

# output
1. 3.4
2. 7.3

State the recorded HD50 for every item in the following list.
1. CC(=O)[C@H]1CC[C@H]2[C@@H]3CC[C@H]4C[C@H](O)[C@@H](N5C[C@@H](C)O[C@@H](C)C5)C[C@]4(C)[C@H]3C(=O)C[C@]12C
2. CC1(C)CN([C@H]2C[C@@]3(C)[C@@H](CC[C@H]4[C@@H]5CC[C@H](C(=O)CSC#N)[C@@]5(C)CC(=O)[C@@H]43)C[C@@H]2O)CCO1
3. CCCCC1(CCCC)CN([C@H]2C[C@@]3(C)[C@@H](CC[C@H]4[C@@H]5CC[C@H](C(C)=O)[C@@]5(C)CC(=O)[C@@H]43)C[C@@H]2O)CCO1

# output
1: 14.4; 2: 10; 3: 31.1

// sample `CC(=O)[C@H]1CC[C@H]2[C@@H]3CC[C@H]4C[C@H](O)[C@@H](N5CCO[C@@H](Cc6ccccc6)C5)C[C@]4(C)[C@H]3C(=O)C[C@]12C` , its HD50 was 12.8

Hey, just so you know, these numbers are from ChEMBL document CHEMBL1130383.
